The following compounds have recorded GI50 on IGROV1 ovarian.

Completed entries (count: 8):
Ask: Can you share its GI50? I mean this compound: `Cc1cc(OCc2nnc3n2N=C(c2ccc(Cl)cc2Cl)CS3)ccc1Cl`
Reply: 52300 nM

Ask: What do you have for `CCCNc1nc2ccccc2c2c1S(=O)(=O)c1ccc(Cl)cc1C2=O` ?
Reply: 1460 nM

Ask: What do you have for `COc1ccc2nc(NC(=O)c3cccnc3Nc3cc(OC)c(OC)c(OC)c3)sc2c1` ?
Reply: 13200 nM

Ask: What do you have for `Cc1cccc2c(N)c3ccccc3nc12` ?
Reply: 2180 nM

Ask: What do you have for `O=S(=O)(NCCNc1nccc(-c2c(-c3ccc(F)cc3)nc3sccn23)n1)c1ccccc1` ?
Reply: 2990 nM

Ask: What do you have for COc1ccc(C2=CC(c3ccc(OC)c(OC)c3)c3c(c4ccccc4oc3=O)O2)cc1OC (centres undefined) ?
Reply: 2470 nM

Ask: What do you have for `COc1cc(/C=C/C(=O)c2cccnc2Nc2ccc(F)cc2)cc(OC)c1OC` ?
Reply: 7420 nM

Ask: What do you have for `C=C1c2c(Cl)ccc(O)c2C(O)=C2C(=O)[C@]3(O)C(O)=C(C(N)=O)C(=O)[C@@H](N(C)C)[C@@H]3[C@@H](O)[C@H]12` ?
Reply: 1030 nM

Turning now to a further record.
Ask: Can you share its GI50? I mean this compound: `CC(=O)Oc1ccc(C(c2ccc(OC(C)=O)cc2)c2ccccn2)cc1`
Reply: 19900 nM

---

A collection of compounds and their measured TGI
Test system: LOX IMVI melanoma
Test: NCI tumour cell line growth inhibition, 48 h

Completed entries (count: 2):
Ask: Can you share its TGI? I mean this compound: CC1=CC(=O)N(c2c(C)cccc2Cl)C(C)N1 (stereo not drawn)
Reply: > 100 µM

Ask: What do you have for `O=C(Nc1ccc(I)cc1F)c1cc(Cl)ccc1O` ?
Reply: 2.18 µM

---
Ask: Can you share its TGI? I mean this compound: `Cc1ccccc1-n1c(C)nc(-c2ccccc2)cc1=O`
Reply: > 100 µM

Ask: What do you have for `O=S(=O)(C/C(=N\O)c1ccccc1)c1ccccc1` ?
Reply: > 100 µM

Ask: What do you have for `CN(C)CCN1C(=O)c2cccc3cccc(c23)C1=O` ?
Reply: > 25 µM

Ask: What do you have for `COCCOC(=O)C(C)=[N+]=[N-]` ?
Reply: > 100 µM

Ask: What do you have for `O=C(O)/C=C/C(=O)N1C/C(=C\c2ccccc2)C(=O)/C(=C/c2ccccc2)C1` ?
Reply: 10.5 µM

---

System: SK-MEL-2 melanoma
Assay: NCI tumour cell line growth inhibition, 48 h
measured-metric: TGI

Ask: Can you share its TGI? I mean this molecule: CNC(=O)OCC1C2=C(C(=O)C(C)=C(N)C2=O)N2CC3C(N3C)C12OC (stereo unspecified)
Reply: 55.7 µM

Ask: What do you have for `CCCNc1nc2ccccc2c2c1S(=O)(=O)c1ccc(Cl)cc1C2=O` ?
Reply: > 50 µM

Ask: What do you have for CCC(=O)C(C(C)/C=C/CCSc1ccccc1)C(O)CCCCCC(=O)OC (stereo unspecified) ?
Reply: > 100 µM

Ask: What do you have for Cc1cc2c(cc1N)C(C)C1(CCC(=O)N2Cc2ccccc2)OCCO1 (stereo unspecified) ?
Reply: > 100 µM

Ask: What do you have for `COc1ccc(OC)c(Nc2nc(-c3c(C)nc4sccn34)cs2)c1` ?
Reply: > 100 µM

Ask: What do you have for `O=C1OC(c2ccccc2)=N/C1=C\c1cccc(F)c1` ?
Reply: > 100 µM
